B1: minF1; the commonest letter at each place (parent)
chain: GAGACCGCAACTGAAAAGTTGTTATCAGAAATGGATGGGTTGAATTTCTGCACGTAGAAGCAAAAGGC

- Variants of: B1
- assayRemarks: fraction ligated after 30 min (ligated reads / total reads); higher = more ligase activity
- details: with F1*subA RNA substrate (template-directed ligation), 42 °C
Values of fraction ligated greater than or equal to 0.02 map to Satisfied; values below map to Not satisfied.

{"entrySequence": "GAGACCGCAACTGAAAAGTTGTAATCAGAAATGAATGGGTTGAATTTCTGCACGTAGAAGCAAAAGGC [T23A G34A]", "assignedCategory": "Satisfied"}
{"entrySequence": "GAGACCGCAACTGAAAAGTTGTTATCAGAACTGGGTGGGTTGAATTTCTGCACGTAGAAGCAAAAGGC [A31C A35G]", "assignedCategory": "Satisfied"}
{"entrySequence": "GAGACCGCAACTGAAAAGTTGTTATCAGAGATGGCTGGGTTGAATTTCTGCACGTAGAAGCAAAAGGC [A30G A35C]", "assignedCategory": "Satisfied"}
{"entrySequence": "GAGACCGCAACTGAAAAGTTGTTATCAGAGATGGATGGGTTGACTTTCTGCACGTAGAAGCAAAAGGC [A30G A44C]", "assignedCategory": "Satisfied"}
{"entrySequence": "GAGACCGCAACTGAAAAGTTGTTATCTGAAATGGATGGGTTGGATTTCTGCACGTAGAAGCAAAAGGC [A27T A43G]", "assignedCategory": "Satisfied"}
{"entrySequence": "GAGACCGCAACTGAAAAGTTGTTGTCACAAATGGATGGGTTGAATTTCTGCACGTAGAAGCAAAAGGC [A24G G28C]", "assignedCategory": "Satisfied"}
{"entrySequence": "GAGACCGCAACTGAAAAGTTGTTCTCAGAAATGCATGGGTTGAATTTCTGCACGTAGAAGCAAAAGGC [A24C G34C]", "assignedCategory": "Not satisfied"}
{"entrySequence": "GAGACCGCAACTGAAAAGTTGTGATCAGAAACGGATGGGTTGAATTTCTGCACGTAGAAGCAAAAGGC [T23G T32C]", "assignedCategory": "Not satisfied"}
{"entrySequence": "GAGACCGCAACTGAAAAGTTGTTATCAGAAAAGGATGGGTTGTATTTCTGCACGTAGAAGCAAAAGGC [T32A A43T]", "assignedCategory": "Satisfied"}
{"entrySequence": "GAGACCGCAACTGAAAAGTTGTTATCAGATATGTATGGGTTGAATTTCTGCACGTAGAAGCAAAAGGC [A30T G34T]", "assignedCategory": "Not satisfied"}
{"entrySequence": "GAGACCGCAACTGAAAAGTTGTTATCAGACAAGGATGGGTTGAATTTCTGCACGTAGAAGCAAAAGGC [A30C T32A]", "assignedCategory": "Satisfied"}
{"entrySequence": "GAGACCGCAACTGAAAAGTTGTTTTCAGAGATGGATGGGTTGAATTTCTGCACGTAGAAGCAAAAGGC [A24T A30G]", "assignedCategory": "Not satisfied"}
{"entrySequence": "GAGACCGCAACTGAAAAGTTGTTATCAGACATGGATGGGTTGGATTTCTGCACGTAGAAGCAAAAGGC [A30C A43G]", "assignedCategory": "Satisfied"}
{"entrySequence": "GAGACCGCAACTGAAAAGTTGTGTTCAGAAATGGATGGGTTGAATTTCTGCACGTAGAAGCAAAAGGC [T23G A24T]", "assignedCategory": "Satisfied"}
{"entrySequence": "GAGACCGCAACTGAAAAGTTGTTGTCAGAAATGGATGGGTTGAGTTTCTGCACGTAGAAGCAAAAGGC [A24G A44G]", "assignedCategory": "Not satisfied"}
{"entrySequence": "GAGACCGCAACTGAAAAGTTGTTATCCGAAATGGATGGGTTGAATTTCTGCACGTAGAAGCAAAAGGC [A27C]", "assignedCategory": "Satisfied"}
{"entrySequence": "GAGACCGCAACTGAAAAGTTGTTAGCAGAAATGGATGGGTTGGATTTCTGCACGTAGAAGCAAAAGGC [T25G A43G]", "assignedCategory": "Not satisfied"}
{"entrySequence": "GAGACCGCAACTGAAAAGTTGTTATCAGAAGTGGACGGGTTGAATTTCTGCACGTAGAAGCAAAAGGC [A31G T36C]", "assignedCategory": "Not satisfied"}
{"entrySequence": "GAGACCGCAACTGAAAAGTTGTAATCAGGAATGGATGGGTTGAATTTCTGCACGTAGAAGCAAAAGGC [T23A A29G]", "assignedCategory": "Satisfied"}
{"entrySequence": "GAGACCGCAACTGAAAAGTTGTTATAATAAATGGATGGGTTGAATTTCTGCACGTAGAAGCAAAAGGC [C26A G28T]", "assignedCategory": "Satisfied"}
{"entrySequence": "GAGACCGCAACTGAAAAGTTGTTATGAGAAATGGATGGGTTGACTTTCTGCACGTAGAAGCAAAAGGC [C26G A44C]", "assignedCategory": "Not satisfied"}
{"entrySequence": "GAGACCGCAACTGAAAAGTTGTTATCAGAAAGTGATGGGTTGAATTTCTGCACGTAGAAGCAAAAGGC [T32G G33T]", "assignedCategory": "Not satisfied"}
